// reported Ki per item
target: PCP (Phencylidine) receptor (Rattus norvegicus, UniProt P35439); construct: the pellets were then suspended in 5mM Tris-HCI buffer and used as the receptor preparation; from tissue; host or cells: rat (male Slc-Wistar) cerebral cortex membrane preparation; test: Binding test against PCP (Phencylidine) receptor, 3H-TCP displacement in rat cortex membrane preparation; parameters: species or system rats (male, Slc-Wistar rat); conditions: rat cortex receptor preparation (0.2mg protein/ml), labelled ligand 3H-TCP, 25 °C 30 minutes
// return numeric value only (unit: µM, not printed)

As a guide, the following entries are already answered.
{"Compound": "c1ccc2c(c1)CCc1ccccc1C21CCCN1", "Ki / µM": 0.047}
{"Compound": "CCCN1CCCC12c1ccccc1CCc1ccc(C)cc12 (stereo not drawn)", "Ki / µM": 0.77}
{"Compound": "Cc1ccc2c(c1)C1(CCCN1C)c1ccccc1CC2 (stereo not drawn)", "Ki / µM": 0.51}
{"Compound": "Clc1ccc2c(c1)C1(CCCN1)c1ccccc1CC2 (stereo not drawn)", "Ki / µM": 0.023}
{"Compound": "CCN1CCCC12c1ccccc1CCc1ccccc12", "Ki / µM": 0.62}
{"Compound": "Cc1ccc2c(c1)C1(CCCN1)c1ccccc1CC2 (stereo not drawn)", "Ki / µM": 0.031}
{"Compound": "CCN1CCCC12c1ccccc1CCc1ccc(Cl)cc12 (stereo not drawn)", "Ki / µM": 0.54}

Ask: Dear colleague, please send me the reported Ki for CCN1CCCC12c1ccccc1CCc1ccc(C)cc12 (stereo not drawn) when you can.
Result: 0.25

FYI, the data here is from patent EP0456183B1.
